# Measured on: NR2F6 (Homo sapiens, UniProt P10588)
# Construct: expressed in transfected cells; also transient transfection
# Sequence (P10588 whole entry): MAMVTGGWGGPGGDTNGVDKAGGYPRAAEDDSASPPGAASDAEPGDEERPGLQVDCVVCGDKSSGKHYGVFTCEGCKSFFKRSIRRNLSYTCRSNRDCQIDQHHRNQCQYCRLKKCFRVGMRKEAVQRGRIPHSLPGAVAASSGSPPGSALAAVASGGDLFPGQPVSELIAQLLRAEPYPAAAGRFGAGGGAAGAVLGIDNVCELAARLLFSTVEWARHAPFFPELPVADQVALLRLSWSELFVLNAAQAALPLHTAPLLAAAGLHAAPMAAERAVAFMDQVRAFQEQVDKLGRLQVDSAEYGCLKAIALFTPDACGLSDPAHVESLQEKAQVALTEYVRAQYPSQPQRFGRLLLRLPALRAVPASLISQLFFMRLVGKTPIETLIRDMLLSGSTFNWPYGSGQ
# Experiment notes: NR2F6 agonist screening, Firefly signal cmpd/DMSO
# Assay type: cell-based
# Experimental context: F4; 10% FBS; 10 uM
Mark rule met for Firefly, F4, 10% FBS, cmpd/DMSO (mean) under 2, rule not met if at or over.

smiles_string=O=S1(=O)C[C@H](NCc2ccncc2)[C@@H](S(=O)(=O)c2cccs2)C1 class="rule met"
smiles_string=CC(=O)Nc1ccc(S(=O)(=O)[C@H]2CS(=O)(=O)C[C@@H]2NC2CC2)cc1 class="rule met"
smiles_string=O=S1(=O)C[C@H](NC2CCCCCC2)[C@@H](S(=O)(=O)c2ccc(Cl)cc2)C1 class="rule not met"
smiles_string=COCCN[C@H]1CS(=O)(=O)C[C@@H]1S(=O)(=O)c1cccs1 class="rule met"

Task item: Is it true that Firefly, F4, 10% FBS, cmpd/DMSO (mean) reported for `O=S1(=O)C[C@H](NC2CCCCC2)[C@@H](S(=O)(=O)c2ccc(Cl)cc2)C1` is less than 2?
Reply: rule not met

Task item: Next compound up: `CCCCN[C@H]1CS(=O)(=O)C[C@@H]1S(=O)(=O)c1ccc(Cl)cc1`
Reply: rule not met

Task item: Can you handle `CC(C)CN[C@H]1CS(=O)(=O)C[C@@H]1S(=O)(=O)c1ccc(Cl)cc1` next?
Reply: rule not met
